Where do these numbers come from? They come from patent US11999727B2.

# system: PRMT5 (Homo sapiens, UniProt O14744)
# Construct: purchased Viva (custom protein)
# Sequence (O14744 whole entry): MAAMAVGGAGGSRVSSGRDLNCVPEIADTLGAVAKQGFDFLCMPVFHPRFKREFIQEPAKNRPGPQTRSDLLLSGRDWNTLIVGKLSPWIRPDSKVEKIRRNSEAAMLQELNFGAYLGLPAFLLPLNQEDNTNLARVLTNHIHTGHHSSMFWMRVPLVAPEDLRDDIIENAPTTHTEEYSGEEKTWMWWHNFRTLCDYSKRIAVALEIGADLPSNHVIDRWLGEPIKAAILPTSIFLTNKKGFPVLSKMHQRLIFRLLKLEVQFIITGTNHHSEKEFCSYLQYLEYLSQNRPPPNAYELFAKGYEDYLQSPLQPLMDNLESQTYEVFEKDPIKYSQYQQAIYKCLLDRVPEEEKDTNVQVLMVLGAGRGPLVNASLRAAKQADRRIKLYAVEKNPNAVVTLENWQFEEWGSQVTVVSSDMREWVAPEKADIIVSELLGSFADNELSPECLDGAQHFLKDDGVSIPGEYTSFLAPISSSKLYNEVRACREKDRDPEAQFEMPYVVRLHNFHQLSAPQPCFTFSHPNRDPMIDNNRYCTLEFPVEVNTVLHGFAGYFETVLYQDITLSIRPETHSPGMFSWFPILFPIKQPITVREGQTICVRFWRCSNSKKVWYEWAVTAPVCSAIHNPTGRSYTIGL
# Sequence (Q9BQA1 whole entry partner): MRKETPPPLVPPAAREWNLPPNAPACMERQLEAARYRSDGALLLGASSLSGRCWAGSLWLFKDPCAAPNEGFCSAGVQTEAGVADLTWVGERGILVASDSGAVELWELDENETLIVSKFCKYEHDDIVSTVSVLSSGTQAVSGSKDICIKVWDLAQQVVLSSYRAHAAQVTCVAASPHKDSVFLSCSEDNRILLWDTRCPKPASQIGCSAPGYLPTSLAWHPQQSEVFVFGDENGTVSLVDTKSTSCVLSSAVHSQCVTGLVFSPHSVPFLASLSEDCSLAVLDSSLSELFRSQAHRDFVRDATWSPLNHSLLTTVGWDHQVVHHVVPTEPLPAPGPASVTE
# experiment: PRMT5 biochemical IC50 assay with no cofactor
# condition-summary: PRMT5, no cofactor; read-out: No Cofactor/rel IC50
metric-name: IC50

The examples below pair each entry with its known result.
- compound: "CCc1cc(NC(=O)C(=O)N2C[C@H](C)CC[C@H]2c2ccc(C)nc2)cnc1N (single isomer, unassigned)"
  IC50: "> 500 nM"
- compound: "CCc1cc(NC(=O)C(=O)N2C[C@@H](C)CC[C@@H]2c2ccc3sc(CCN4CCCC4)nc3c2)cnc1N"
  IC50: "< 50 nM"
- compound: "C[C@H]1CC[C@H](c2cc3cn[nH]c3s2)N(C(=O)C(=O)Nc2cncc(C(N)=O)c2)C1 (single isomer, unassigned)"
  IC50: "> 500 nM"
- compound: "NC(=O)c1cncc(NC(=O)C(=O)N2CC3(CCC2c2ccc(F)cc2)CC3)c1 (stereo not shown)"
  IC50: "50 to 500 nM"
- compound: "COc1ncc(NC(=O)C(=O)N2C[C@H](C)CC[C@H]2c2ccc3[nH]cnc3c2)cc1C(N)=O (single isomer, unassigned)"
  IC50: "< 50 nM"
- compound: "Cc1cc(NC(=O)C(=O)N2C[C@@H](C)CC[C@@H]2c2ccc(CO)cc2)cnc1N (single isomer, unassigned)"
  IC50: "< 50 nM"

## Task State, for PRMT5 (Homo sapiens, UniProt O14744), measured IC50 of the compound listed here: C[C@@H]1CC[C@@H](c2ccc(F)cc2)N(C(=O)C(=O)Nc2cnc(OC(F)(F)F)c(C(N)=O)c2)C1 (racemic)
## Result 50 to 500 nM

## Task // fetch IC50; item: CC(=O)Oc1ccc([C@H]2CC[C@H](C)CN2C(=O)C(=O)Nc2cncc(C(N)=O)c2)cc1 (single isomer, unassigned) ; system: PRMT5 (Homo sapiens, UniProt O14744)
## Result 50 to 500 nM

## Task Provide IC50, tested on PRMT5 (Homo sapiens, UniProt O14744), for COc1cc([C@H]2CC[C@H](C)CN2C(=O)C(=O)Nc2cnc(N)c(C)c2)ccn1 (single isomer, unassigned) .
## Result > 500 nM
